# test name: CelltiterGlo viability cell assay
# Assay type: cell-based
# stated conditions: human, SKMM2 multiple myeloma cells, SKMM2, 6 day, 30 uM; read-out: viability Replicate 1

{"compound": "COc1cc(OC)cc(-c2noc(N3CCN(C)C4(CCN(c5ccnc(C)c5)CC4)C3)n2)c1", "unit of measurement": "%", "viability at 6 day, 30 µM": 71.4}

* * *

# test name: CelltiterGlo viability cell assay
# Type: cell-based
# stated conditions: human, HCC1143 breast cancer cells, HCC1143, 6 day, 3 uM; read-out: viability Replicate 1
readout kind: viability at 6 day, 3 µM (%)

{"compound": "COc1cc(OC)cc(-c2noc(N3CCN(C)C4(CCN(c5ccnc(C)c5)CC4)C3)n2)c1", "readout kind": "viability at 6 day, 3 µM", "reported result": 106}
